Quick record of pIC50 values for Cyclin-dependent kinase 2 (Homo sapiens, UniProt P24941).
pIC50: −log10 of the molar value.

>>> print(df.to_string())
                               smiles_input  readout  data_value
0  COc1cc2c(Nc3ccc(NC(=O)c4ccccc4)cc3)ncnc2cc1OCCO    pIC50      < 4.52
1  COc1cc2c(Nc3ccc(NC(=O)c4ccccc4)cc3)nc(C)nc2cc1O    pIC50      < 4.52
2  COc1cc2c(Nc3ccc(NC(=O)c4ccccc4)cc3)nc(NCCc3ccccn3)nc2cc1O    pIC50      < 4.52
3  COc1cc(C(=O)Nc2ccc(NC(=O)c3ccccc3)cc2)c(N)cc1O    pIC50      < 4.52
4  COc1cc(C(=O)Nc2ccc(NC(=O)c3ccccn3)cc2)cc(-c2c[nH]c(=O)[nH]c2=O)c1    pIC50      < 4.52

Query O=C(Nc1ccc(NC(=O)c2ccccn2)cc1)c1cccc(-c2c[nH]c(=O)[nH]c2=O)c1 on Cyclin-dependent kinase 2 (Homo sapiens, UniProt P24941); pIC50 returned: < 4.52

Query COc1cc(C(=O)Nc2ccc(NC(=O)c3ccccn3)cc2)ccc1O on Cyclin-dependent kinase 2 (Homo sapiens, UniProt P24941); pIC50 returned: < 4.52

Query COc1cc(C(=O)Nc2ccc(NC(=O)c3ccccn3)cc2)cc(N2CCC(=O)NC2=O)c1 on Cyclin-dependent kinase 2 (Homo sapiens, UniProt P24941); pIC50 returned: < 4.52

----------
test: Serum protein binding in human at 10 uM after 30 mins by ultrafiltration method; assay type: ADME; conditions: read-out: PB (converted)
Is fraction unbound at 0.5 h, 10 µM at least 0.02? Then Satisfied. If not, Not satisfied.

In [3]: df
Out[3]:
                                   compound     class_name
0  COc1cc2c(Nc3ccc(NC(=O)c4ccccc4)cc3)nc(N)nc2cc1O      Satisfied
1  COc1cc2c(Nc3ccc(NC(=O)c4ccccc4)cc3)nc(NCCCn3ccnc3)nc2cc1O  Not satisfied
2  COc1cc2c(Nc3ccc(NC(=O)c4ccccc4)cc3)nc(-c3ccccn3)nc2cc1O  Not satisfied

Q: Exam item: decide whether the reported fraction unbound at 0.5 h, 10 µM for COc1cc(C(=O)Nc2ccc(NC(=O)C3CCCCN3)cc2)cc(-c2c[nH]c(=O)[nH]c2=O)c1 (centres undefined) is at least 0.02.
Result: Satisfied

Q: Exam item: decide whether the reported fraction unbound at 0.5 h, 10 µM for COc1cc(C(=O)Nc2ccc(NC(=O)c3ccccn3)cc2)cc(-c2cnc(=O)[nH]c2)c1 is at least 0.02.
Result: Not satisfied

----------
molecular target: Bifunctional protein GlmU (Escherichia coli, UniProt C3SLB7); assay: Inhibition of Escherichia coli ATCC 27325 GlmU expressed in Escherichia coli HMS174(DE3) incubated for 15 mins prior to MgCl2 addition measured after 30 mins by malachite green staining-based assay
Sequence (C3SLB7 whole entry): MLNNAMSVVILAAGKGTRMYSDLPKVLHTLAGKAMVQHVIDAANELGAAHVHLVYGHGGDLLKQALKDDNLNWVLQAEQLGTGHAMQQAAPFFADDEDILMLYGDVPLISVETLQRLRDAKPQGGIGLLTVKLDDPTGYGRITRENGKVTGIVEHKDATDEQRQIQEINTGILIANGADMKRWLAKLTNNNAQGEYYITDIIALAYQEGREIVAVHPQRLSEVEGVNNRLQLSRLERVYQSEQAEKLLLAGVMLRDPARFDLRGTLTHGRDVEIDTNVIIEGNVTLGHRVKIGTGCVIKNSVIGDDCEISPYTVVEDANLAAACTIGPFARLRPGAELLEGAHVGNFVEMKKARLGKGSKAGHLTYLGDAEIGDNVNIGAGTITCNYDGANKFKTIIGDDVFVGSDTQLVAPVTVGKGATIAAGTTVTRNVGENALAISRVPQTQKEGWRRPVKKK
pIC50: −log10 of the molar value.
Is pIC50 at least 6? Then YES. If not, NO.

Consider the worked cases shown below.
>>> df
                               smiles_input                           target_of_assay  class_name
0  O=C(Nc1ccc(NC(=O)c2ccccn2)cc1)c1cccc(-c2c[nH]c(=O)[nH]c2=O)c1  Bifunctional protein GlmU (Escherichia coli, UniProt C3SLB7)         YES
1  COc1cc(C(=O)Nc2ccc(NC(=O)c3ccccn3)cc2)ccc1O  Bifunctional protein GlmU (Escherichia coli, UniProt C3SLB7)          NO
2  COc1cc(C(=O)Nc2ccc(NC(=O)c3ccccn3)cc2)cc(-c2nn[nH]n2)c1  Bifunctional protein GlmU (Escherichia coli, UniProt C3SLB7)          NO

From here, focus on the item given below.
Q: Exam item: decide whether the reported pIC50 for COc1cc2c(Nc3ccc(NC(=O)c4ccccc4)cc3)nc(Cl)nc2cc1O is at least 6.
Result: YES

----------
biological target: Bifunctional protein GlmU (Escherichia coli, UniProt C3SLB7); test: Inhibition of Escherichia coli ATCC 27325 GlmU expressed in Escherichia coli HMS174(DE3) incubated for 15 mins prior to MgCl2 addition measured after 30 mins by malachite green staining-based assay
READOUT: IC50 (µM)
Provide only the numeric value, understood in µM.

Consider the following illustrative entries.
>>> print(df.to_string())
                               smiles_input  unit_annotation  data_value
0  COc1cc(C(=O)Nc2ccc(NC(=O)c3ccccc3)cc2)c(N)cc1O               µM         5.9
1  COc1cc2c(Nc3ccc(NC(=O)c4ccccc4)cc3)ncnc2cc1O               µM         1.3

Here's the next entry for you.
Please fill in: IC50 reported for COc1cc2c(Nc3ccc(NC(=O)c4ccccc4)cc3)nc(NCCCn3ccnc3)nc2cc1O = 4.5

----------
target: Bifunctional protein GlmU (Escherichia coli); test: Inhibition of Escherichia coli ATCC 27325 GlmU expressed in Escherichia coli HMS174(DE3) incubated for 15 mins prior to MgCl2 addition measured after 30 mins by malachite green staining-based assay
READOUT: IC50 (µM)
Provide only the numeric value, understood in µM.

Consider the following illustrative entries.
In [3]: df
Out[3]:
                                   molecule  unit_annotation  data_value
0  COc1cc2c(Nc3ccc(NC(=O)c4ccccc4)cc3)nc(N)nc2cc1O               µM        10.5
1  COc1cc2c(Nc3ccc(NC(=O)c4ccccc4)cc3)nc(C)nc2cc1O               µM         2.2
2  COc1cc(C(=O)Nc2ccc(NC(=O)c3ccccn3)cc2)cc(-c2c[nH]c(=O)[nH]c2=O)c1               µM       0.027
3  O=C(Nc1ccc(NC(=O)c2ccccn2)cc1)c1ccc(O)c([N+](=O)[O-])c1               µM         3.1
4  COc1cc2c(Nc3ccc(NC(=O)c4ccccc4)cc3)nc(NCCc3ccccn3)nc2cc1O               µM        0.65

Please fill in: IC50 reported for COc1cc2c(Nc3ccc(NC(=O)c4ccccc4)cc3)ncnc2cc1OCC(=O)O = 6.7

Please fill in: IC50 reported for COc1cc2c(Nc3ccc(NC(=O)c4ccccc4)cc3)nc(Cc3ccccc3)nc2cc1O = 4.8

Please fill in: IC50 reported for COc1cc2c(Nc3ccc(NC(=O)c4ccccc4)cc3)nc(-c3ccccn3)nc2cc1O = 2.7

Please fill in: IC50 reported for COc1cc(C(=O)Nc2ccc(NC(=O)c3ccccn3)cc2)cc(-c2cnc(=O)[nH]c2)c1 = 4.2

Please fill in: IC50 reported for COc1cc(C(=O)Nc2ccc(NC(=O)c3ccccc3)cc2)cc(-c2c[nH]c(=O)[nH]c2=O)c1O = 0.26

Please fill in: IC50 reported for COc1cc(C(=O)Nc2ccc(NC(=O)c3ccccn3)cc2)cc(N2CCC(=O)NC2=O)c1 = 1.7

Please fill in: IC50 reported for COc1cc(C(=O)Nc2ccc(NC(=O)C3CCCCN3)cc2)cc(-c2c[nH]c(=O)[nH]c2=O)c1 (centres undefined) = 0.12

Please fill in: IC50 reported for COc1cc(C(=O)Nc2ccc(NC(=O)c3ccccc3)cc2)ccc1O = 18

Please fill in: IC50 reported for COc1cc2c(Nc3ccc(NC(=O)c4ccccc4)cc3)ncnc2cc1OCCO = 35

----------
Quick record of pIC50 values for Aurora kinase B (Homo sapiens).
pIC50: −log10 of the molar value.

Consider the following illustrative entries.
In [3]: df
Out[3]:
                               smiles_input  readout  data_value
0  COc1cc(C(=O)Nc2ccc(NC(=O)c3ccccn3)cc2)cc(-c2c[nH]c(=O)[nH]c2=O)c1    pIC50      < 4.52
1  COc1cc(C(=O)Nc2ccc(NC(=O)c3ccccc3)cc2)c(N)cc1O    pIC50      < 4.52

Here's the next entry for you.
Query COc1cc2c(Nc3ccc(NC(=O)c4ccccc4)cc3)nc(C)nc2cc1O on Aurora kinase B (Homo sapiens); pIC50 returned: < 4.52

----------
Collected fraction unbound at 0.5 h, 10 µM values appear next to each entry.
assay: Serum protein binding in human at 10 uM after 30 mins by ultrafiltration method; format: ADME; conditions: read-out: PB (converted)

Consider the following illustrative entries.
In [3]: df
Out[3]:
                               smiles_input  data_value
0  COc1cc2c(Nc3ccc(NC(=O)c4ccccc4)cc3)nc(Cl)nc2cc1O       0.021
1  COc1cc2c(Nc3ccc(NC(=O)c4ccccc4)cc3)nc(Cc3ccccc3)nc2cc1O      < 0.01
2  COc1cc2c(Nc3ccc(NC(=O)c4ccccc4)cc3)nc(NCCc3ccccn3)nc2cc1O      < 0.01

Here's the next entry for you.
Please fill in: fraction unbound at 0.5 h, 10 µM reported for COc1cc(C(=O)Nc2ccc(NC(=O)c3ccccn3)cc2)cc(-c2nn[nH]n2)c1 = 0.032

Values compiled from ChEMBL document CHEMBL3351874.
